Molecular target: CYP17 (Homo sapiens, UniProt P05093)
Sequence (P05093 whole entry): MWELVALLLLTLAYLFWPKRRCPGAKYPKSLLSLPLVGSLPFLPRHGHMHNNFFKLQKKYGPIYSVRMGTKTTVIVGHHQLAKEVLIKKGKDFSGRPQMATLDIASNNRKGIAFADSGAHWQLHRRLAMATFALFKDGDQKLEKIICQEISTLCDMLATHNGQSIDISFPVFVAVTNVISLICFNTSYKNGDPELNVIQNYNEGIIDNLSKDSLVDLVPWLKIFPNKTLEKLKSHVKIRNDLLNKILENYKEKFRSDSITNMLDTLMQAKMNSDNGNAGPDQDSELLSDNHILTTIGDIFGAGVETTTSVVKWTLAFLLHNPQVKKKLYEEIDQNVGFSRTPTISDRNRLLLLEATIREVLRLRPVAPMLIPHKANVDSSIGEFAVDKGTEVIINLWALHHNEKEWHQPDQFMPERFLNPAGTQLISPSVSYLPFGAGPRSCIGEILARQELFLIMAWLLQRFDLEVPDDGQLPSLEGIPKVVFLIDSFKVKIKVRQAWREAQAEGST
Assay: in vitro
Settings: human CYP17 expressed in Escherichia coli
Description: Inhibition of human CYP17 expressed in Escherichia coli at 2.5 uM
The entries below are paired with their reported inhibition at 2.5 µM.
Form entry: value (%) — number only.

Some compounds with known inhibition at 2.5 µM results, for comparison:
# COMPOUND, inhibition at 2.5 µM / %
rows = [
    ("COc1ccc2cc(-c3cccnc3)ccc2c1", 72),
    ("CN1C(=O)CCc2cc(-c3cccnc3)ccc21", 8),
    ("COc1cncc(-c2ccc3c(c2)CCC(=O)N3)c1", 12),
    ("N#CC1=Cc2ccc(-c3cccnc3)cc2CC1", 74),
]

Tested system CYP17 (Homo sapiens, UniProt P05093); inhibition at 2.5 µM recorded for O=C1CCc2cc(-c3cncc4ccccc34)ccc2N1 was 22

Tested system CYP17 (Homo sapiens, UniProt P05093); inhibition at 2.5 µM recorded for OC1CCc2cc(-c3cccnc3)ccc2C1 (centres undefined) was 49

Tested system CYP17 (Homo sapiens, UniProt P05093); inhibition at 2.5 µM recorded for COc1cncc(-c2ccc3c(c2)CCC(=O)C3)c1 was 21

* * *

The entries below are paired with their reported half-life.
assay: Terminal half life in Wistar rat at 25 mg/kg, po; format: ADME, organism-based; design: dose 25 mg/kg, route oral; conditions: in vivo, read-out: beta t1/2 (converted)
The answer should read as a number with its unit following.

// O=C1CCc2cc(-c3cccnc3)ccc2N1 : half-life value = 72 min

// O=C1CCc2cc(-c3cncc4ccccc34)ccc2N1 : half-life value = 174 min

* * *

molecular target: Cytochrome P450 2C19 (Homo sapiens); experiment: Inhibition of human recombinant CYP2C19 expressed in baculovirus-infected insect microsomes; assay type: ADME, Microsome; conditions: read-out: IC50
Sequence (P33261 whole entry): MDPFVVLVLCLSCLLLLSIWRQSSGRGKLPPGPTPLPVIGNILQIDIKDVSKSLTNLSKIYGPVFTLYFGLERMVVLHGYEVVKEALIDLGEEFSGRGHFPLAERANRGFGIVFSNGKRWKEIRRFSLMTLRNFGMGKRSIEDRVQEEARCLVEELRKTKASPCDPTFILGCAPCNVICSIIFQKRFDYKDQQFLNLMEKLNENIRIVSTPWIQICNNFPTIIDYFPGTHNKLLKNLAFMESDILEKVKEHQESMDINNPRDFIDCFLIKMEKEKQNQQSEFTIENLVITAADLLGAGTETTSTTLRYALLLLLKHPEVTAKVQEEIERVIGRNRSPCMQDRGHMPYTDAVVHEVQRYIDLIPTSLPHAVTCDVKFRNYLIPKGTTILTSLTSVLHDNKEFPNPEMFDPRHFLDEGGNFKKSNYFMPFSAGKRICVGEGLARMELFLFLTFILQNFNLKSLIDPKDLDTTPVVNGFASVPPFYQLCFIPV
We label by threshold. Values of IC50 strictly beneath 50 µM are Yes. Values of 50 µM and up are No.

Some entries whose results are on file:
# CHEMICAL_STRING, ASSIGNED_CLASS
rows = [
    ("O=C1CCc2cc(-c3cccnc3)ccc2C1", "Yes"),
    ("O=C1CCc2cc(-c3cccnc3)ccc21", "No"),
    ("COc1cncc(-c2ccc3c(c2)CCC(=O)C3)c1", "Yes"),
]

Ask: Problem: For the compound O=C1CCc2cc(-c3cncc4ccccc34)ccc2N1 , is IC50 under 50 µM?
Result: Yes

Ask: Problem: For the compound CN1C(=O)CCc2cc(-c3cccnc3)ccc21 , is IC50 under 50 µM?
Result: No

* * *

test: Terminal half life in Wistar rat at 5 mg/kg, po by cassette dosing; format: ADME, organism-based; set-up: dose 5 mg/kg, route oral; conditions: in vivo, read-out: beta t1/2 (converted)
We label by threshold. Values of half-life strictly beneath 3 h are Yes. Values of 3 h and up are No.

Some entries whose results are on file:
# COMPOUND, ASSIGNED_CLASS
measured = [
    ("O=C1CCc2cc(-c3cccnc3)ccc2C1", "No"),
    ("O=C1CCc2cc(-c3cccnc3)ccc21", "Yes"),
]

Ask: Problem: For the compound N#Cc1ccc(C2CCCc3cncn32)cc1 (stereo unspecified) [FADROZOLE] , is half-life under 3 h?
Result: No

Ask: Problem: For the compound COc1cncc(-c2ccc3c(c2)CCC(=O)C3)c1 , is half-life under 3 h?
Result: No

Ask: Problem: For the compound CN1C(=O)CCc2cc(-c3cccnc3)ccc21 , is half-life under 3 h?
Result: Yes

Ask: Problem: For the compound O=C1CCc2cc(-c3cccnc3)ccc2N1 , is half-life under 3 h?
Result: No

* * *

molecular target: UniProtKB P20813; test: Inhibition of human recombinant CYP2B6 expressed in baculovirus-infected insect microsomes
Sequence (P20813 whole entry): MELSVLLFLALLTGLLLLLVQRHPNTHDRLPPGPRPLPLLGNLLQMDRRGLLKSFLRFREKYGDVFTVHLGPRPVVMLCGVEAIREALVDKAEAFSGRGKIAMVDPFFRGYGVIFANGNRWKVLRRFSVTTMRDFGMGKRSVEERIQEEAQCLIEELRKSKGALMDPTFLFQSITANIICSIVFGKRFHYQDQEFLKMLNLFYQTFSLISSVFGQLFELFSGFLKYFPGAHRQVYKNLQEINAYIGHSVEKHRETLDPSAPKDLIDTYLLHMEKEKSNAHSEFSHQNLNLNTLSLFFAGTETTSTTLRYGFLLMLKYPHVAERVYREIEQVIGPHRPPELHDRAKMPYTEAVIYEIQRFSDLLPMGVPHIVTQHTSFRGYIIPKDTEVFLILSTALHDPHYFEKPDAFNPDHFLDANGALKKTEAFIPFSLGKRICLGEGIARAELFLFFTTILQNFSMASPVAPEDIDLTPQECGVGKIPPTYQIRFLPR
pIC50: −log10 of the molar value.
QUANTITY: pIC50

# COMPOUND, pIC50
rows = [
    ("CN1C(=O)CCc2cc(-c3cccnc3)ccc21", "> 4.30"),
    ("COC1CCc2cc(-c3cccnc3)ccc2C1 (configuration not stated)", 4.32),
    ("COc1cncc(-c2ccc3c(c2)CCC(=O)C3)c1", "> 4.30"),
    ("O=C1CCc2cc(-c3cccnc3)ccc2N1", "> 4.30"),
    ("O=C1CCc2cc(-c3cccnc3)ccc2C1", "> 4.30"),
    ("O=C1CCc2cc(-c3cccnc3)ccc21", "> 4.30"),
]

Next, consider the following compound.
// O=C1CCc2cc(-c3cncc4ccccc34)ccc2N1 : pIC50 value = > 4.00

* * *

biological target: CYP19 (aromatase) (Homo sapiens, UniProt P11511); assay: Inhibition of human placental CYP19 at 500 nM; assay type: functional
Sequence (P11511 whole entry): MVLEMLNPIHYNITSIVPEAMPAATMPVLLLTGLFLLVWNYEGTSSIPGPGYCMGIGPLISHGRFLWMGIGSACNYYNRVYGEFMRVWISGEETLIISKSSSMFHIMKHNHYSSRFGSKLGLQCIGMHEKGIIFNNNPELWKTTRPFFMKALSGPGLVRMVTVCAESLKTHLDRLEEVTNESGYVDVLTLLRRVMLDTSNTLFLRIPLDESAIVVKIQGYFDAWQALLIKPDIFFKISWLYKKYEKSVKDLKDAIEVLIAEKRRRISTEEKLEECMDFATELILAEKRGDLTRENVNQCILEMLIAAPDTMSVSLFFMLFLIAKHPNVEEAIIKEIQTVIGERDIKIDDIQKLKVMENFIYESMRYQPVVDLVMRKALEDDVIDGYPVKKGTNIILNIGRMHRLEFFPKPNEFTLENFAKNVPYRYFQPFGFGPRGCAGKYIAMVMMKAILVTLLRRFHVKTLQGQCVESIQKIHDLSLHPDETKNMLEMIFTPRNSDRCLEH
The entries below are paired with their reported inhibition at 0.5 µM.
Form entry: value (%) — number only.

# MOLECULE, RECORDED_NUMBER
data = [
    ("COC1CCc2cc(-c3cccnc3)ccc2C1 (stereo not drawn)", 22),
    ("CN1C(=O)CCc2cc(-c3cccnc3)ccc21", 54),
    ("CCN1C(=O)CCc2cc(-c3cccnc3)ccc21", 63),
]

// O=C1CCc2cc(-c3cccnc3)cc(Cl)c2N1 : inhibition at 0.5 µM value = 17

// O=C1CCc2cc(-c3cccnc3)ccc2N1 : inhibition at 0.5 µM value = 21

* * *

assay: AUC (0 to infinity) in Wistar rat at 5 mg/kg, po by cassette dosing; type: ADME, organism-based; design: time infinity, dose 5 mg/kg, route oral; conditions: plasma
The entries below are paired with their reported AUC(0-inf).
Form entry: value (ng·h/mL) — number only.

# COMPOUND, UNIT_OF_MEASURE, AUC(0-inf)
rows = [
    ("O=C1CCc2cc(-c3cccnc3)ccc2N1", "ng·h/mL", 1750),
    ("CN1C(=O)CCc2cc(-c3cccnc3)ccc21", "ng·h/mL", 659),
]

// O=C1CCc2cc(-c3cccnc3)ccc21 : AUC(0-inf) value = 3180

// COc1cncc(-c2ccc3c(c2)CCC(=O)C3)c1 : AUC(0-inf) value = 212

// N#Cc1ccc(C2CCCc3cncn32)cc1 (stereo unspecified) [FADROZOLE] : AUC(0-inf) value = 3210

// O=C1CCc2cc(-c3cccnc3)ccc2C1 : AUC(0-inf) value = 727

* * *

target: Cytochrome P450 2C9 (Homo sapiens, UniProt P11712); experiment: Inhibition of human recombinant CYP2C9 expressed in baculovirus-infected insect microsomes
Sequence (P11712 whole entry): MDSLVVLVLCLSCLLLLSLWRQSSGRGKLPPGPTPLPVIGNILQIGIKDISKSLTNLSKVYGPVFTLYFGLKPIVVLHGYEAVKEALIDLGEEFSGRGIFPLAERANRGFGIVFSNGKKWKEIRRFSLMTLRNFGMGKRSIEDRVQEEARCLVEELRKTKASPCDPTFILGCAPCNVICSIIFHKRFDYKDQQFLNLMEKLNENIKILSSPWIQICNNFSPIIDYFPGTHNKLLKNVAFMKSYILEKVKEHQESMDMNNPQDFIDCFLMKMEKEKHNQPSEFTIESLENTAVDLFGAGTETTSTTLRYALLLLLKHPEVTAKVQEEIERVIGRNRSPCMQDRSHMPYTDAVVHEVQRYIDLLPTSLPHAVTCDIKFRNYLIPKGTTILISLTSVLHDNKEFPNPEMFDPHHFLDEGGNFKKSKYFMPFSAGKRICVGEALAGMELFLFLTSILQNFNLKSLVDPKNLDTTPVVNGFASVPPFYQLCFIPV
pIC50: −log10 of the molar value.
Outcome: True for pIC50 of at least 5; False for anything lower.

Some entries whose results are on file:
# MOLECULE, TARGET_UNDER_TEST, ASSIGNED_CLASS
data = [
    ("O=C1CCc2cc(-c3cccnc3)ccc2C1", "Cytochrome P450 2C9 (Homo sapiens, UniProt P11712)", "False"),
    ("COC1CCc2cc(-c3cccnc3)ccc2C1 (configuration not stated)", "Cytochrome P450 2C9 (Homo sapiens, UniProt P11712)", "False"),
    ("O=C1CCc2cc(-c3cncc4ccccc34)ccc2N1", "Cytochrome P450 2C9 (Homo sapiens, UniProt P11712)", "True"),
    ("CN1C(=O)CCc2cc(-c3cccnc3)ccc21", "Cytochrome P450 2C9 (Homo sapiens, UniProt P11712)", "False"),
    ("O=C1CCc2cc(-c3cccnc3)ccc2N1", "Cytochrome P450 2C9 (Homo sapiens, UniProt P11712)", "False"),
]

Then this molecule:
Ask: Please check the record O=C1CCc2cc(-c3cccnc3)ccc21 and state if its pIC50 is at or above 5.
Result: False

* * *

target: UniProt:P05093; experiment: in vitro; settings: human CYP17 expressed in Escherichia coli
Outcome: condition met for inhibition at 2.5 µM of at least 40%; condition not met for anything lower.

# MOLECULE, ASSIGNED_CLASS
measured = [
    ("COC1CCc2cc(-c3cccnc3)ccc2C1 (configuration not stated)", "condition met"),
    ("S=C1CCc2cc(-c3cccnc3)ccc2N1", "condition met"),
    ("N#Cc1ccc2cc(-c3cccnc3)ccc2c1", "condition met"),
    ("O=C1CCc2cc(-c3cccnc3)cc(Cl)c2N1", "condition not met"),
]

Then this molecule:
Ask: Please check the record O=C1CCc2cc(-c3cccnc3)ccc2C1 and state if its inhibition at 2.5 µM is at or above 40%.
Result: condition not met
